In this section we review reported protein stability index values for a set of variants.
B1: HESX1 (parent)
chain: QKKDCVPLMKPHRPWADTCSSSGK

variants of: B1; test: protein stability index of a GFP-peptide fusion (GPS, HEK-293T) (PSI 1-6); higher = more stable; conditions: c terminus: a fixed tail appended;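 further: lentivirally expressed fusions sorted by FACS into six bins by GFP to DsRed ratio, PSI derived from sequencing read proportions per bin multiplied by bin number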
Please reply with the number alone, leaving off any unit.

Solved cases (4 shown):
- K2M: 3.24
- K24Q: 3.57
- R13P: 3.25
- K2C: 4.18

// protein stability index lookup, variant = A16R , result: 3.45

Form field protein stability index, entry D17F : 3.07

Summary for this variant, P7S : protein stability index is 3.38

This collection of values is drawn from the supplement of paper PMC10567573.
